Molecular target: T1, biotin-labeled recombinant EGFRvIII protein (UniProt P00533 25-645, biotin-labeled)
T1 construct: the construct is not described
Assay: competitive ELISA; competitor Control antibody 01

BINDER	competition rate
Murine anti-63A10 (antibody, V domains shown, Mouse hybridoma antibody; also called 63A10A7) VH: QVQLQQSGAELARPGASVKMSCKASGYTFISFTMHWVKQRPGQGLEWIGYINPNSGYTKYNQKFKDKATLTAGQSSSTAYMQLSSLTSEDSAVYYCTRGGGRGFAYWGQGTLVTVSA VL: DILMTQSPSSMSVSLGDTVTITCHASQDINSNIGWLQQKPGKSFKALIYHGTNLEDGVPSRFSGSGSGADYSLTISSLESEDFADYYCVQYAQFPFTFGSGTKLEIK	-3%
Murine anti-75G7 (antibody, V domains shown, Mouse hybridoma antibody; also called 75G7C6) VH: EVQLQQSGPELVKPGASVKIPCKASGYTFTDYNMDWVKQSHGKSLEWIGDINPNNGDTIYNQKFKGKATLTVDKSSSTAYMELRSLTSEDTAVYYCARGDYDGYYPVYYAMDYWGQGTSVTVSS VL: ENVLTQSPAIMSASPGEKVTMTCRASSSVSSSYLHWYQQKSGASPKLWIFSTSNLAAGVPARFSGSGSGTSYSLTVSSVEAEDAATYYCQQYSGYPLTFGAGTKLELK	-5%
Murine anti-7E5 (antibody, V domains shown, Mouse hybridoma antibody; also called 7E5-2A9; murine anti-7E5-2) VH: EIQLQQSGPELVKPGASVKVSCKASGYSFTDYNMYWVKQSHGKSLEWIGYVDPSNGGTNYNQKFKGKATLTVDKSSSTAFMHLNSLTSEDSAVYYCARGFFDYWGQGTTLTVSS VL: DIVMTQSPSSLTVTAGEKVTMSCKSSQSLLNSGNQKNYLTWYQQKPGQPPKLLIYWASNRESGVPDRFTGSGSGKDFTLTISSVQAEDLAVYYCQNDYRYPVTFGAGTKLELK	-2%
Murine anti-64F1 (antibody, V domains shown, Mouse hybridoma antibody; also called 64F1F8) VH: QVQLQQSGAELARPGASVKMSCKASGYTFSSYTMHWAKQRPGQGLEWIGYINPSSGYTKYNQKFKDKATLTADKSSSTAYMQLSSLTSEDSIVYYCARGGGRGFAYWGQGTLVTVSA VL: QIVLTQSPAIMSASPGERVTMTCSASSSVSYMYWYQQKPGSSPRLLIYDTSNLASGVPVRFSGSGSGTSYSLTISRVEAEDAATYYCQQWSSYSLTFGAGTKLELK	-5%
